Target: human 5-HT2A receptor (Homo sapiens)
Construct: expressed in transfected cells; host or cells: CHO (CHO-5-HT2A cell line)
Sequence (P28223 whole entry): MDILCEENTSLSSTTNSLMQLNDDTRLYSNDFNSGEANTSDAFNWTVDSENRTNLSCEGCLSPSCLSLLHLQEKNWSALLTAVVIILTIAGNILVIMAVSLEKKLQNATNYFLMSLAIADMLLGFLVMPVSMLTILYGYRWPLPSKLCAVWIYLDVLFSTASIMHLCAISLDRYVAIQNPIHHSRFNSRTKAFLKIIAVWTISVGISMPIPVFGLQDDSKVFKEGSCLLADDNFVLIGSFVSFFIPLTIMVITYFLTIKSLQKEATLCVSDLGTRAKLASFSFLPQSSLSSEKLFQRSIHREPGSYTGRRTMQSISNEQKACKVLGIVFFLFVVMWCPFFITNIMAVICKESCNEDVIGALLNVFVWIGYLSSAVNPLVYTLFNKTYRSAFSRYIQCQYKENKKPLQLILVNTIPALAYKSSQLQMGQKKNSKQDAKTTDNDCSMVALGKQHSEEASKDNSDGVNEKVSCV
Experiment: Ca2+ mobilization in CHO h5-HT2A cells
Format: cell-based
Settings: Ca2+ mobilization; no unit in the table, nM; read-out: 5-HT2A EC50 (in parentheses) (converted)
Lab note: compare EC50 with 200 nM, writing label 1 if less and label 0 if equal or more.

Illustrative cases are given below, each with its answer.
Oc1cccc(CNCCc2c[nH]c3ccccc23)c1 : label 1
Oc1cccc(F)c1CNCCc1c[nH]c2ccccc12 : label 1
COc1ccc(Cl)cc1CNCCc1c[nH]c2ccccc12 : label 0
Oc1c(Br)cccc1CNCCc1c[nH]c2ccccc12 : label 0

# check: EC50 < 200 nM for Oc1cccc(Br)c1CNCCc1c[nH]c2ccccc12 label 0

# check: EC50 < 200 nM for Oc1c(F)cccc1CNCCc1c[nH]c2ccccc12 label 1

# check: EC50 < 200 nM for Clc1ccccc1CNCCc1c[nH]c2ccccc12 label 0

# check: EC50 < 200 nM for COc1ccccc1CNCCc1c[nH]c2ccccc12 label 0

# check: EC50 < 200 nM for COc1ccc2[nH]cc(CCNCc3ccccc3Cl)c2c1 label 1

# check: EC50 < 200 nM for COc1ccc(Br)cc1CNCCc1c[nH]c2ccccc12 label 0

The reported numbers originate from paper PMC6328172.
